Each recorded value in this set is attributed to the DeepSol protein solubility set.

assay: soluble on expression in E. coli; label from the status in PepcDB or PDB records
Reported Metric: soluble on expression in E. coli

Some solved entries appear below for comparison.
Sequence Code	Result
MDGTMEDSEAVQRATALIEQRLAQEEENEKLRGDTRQKLPMDLLVLEDEKHHGAQSAALQKVKGQERVRKTSLDLRREIIDVGGIQNLIELRKKRKQKKRDALAASHEPPPEPEEITGPVDEETFLKAAVEGKMKVIEKFLADGGSADTCDQFRRTALHRASLEGHMEILEKLLDNGATVDFQDRLDCTAMHWACRGGHLEVVKLLQSHGADTNVRDKLLSTPLHVAVRTGQVEIVEHFLSLGLEINARDREGDTALHDAVRLNRYKIIKLLLLHGADMMTKNLAGKTPTDLVQLWQADTRHALEHPEPGAEHNGLEGPNDSGRETPQPVPAQLEHHHHHH	not soluble
MSCGYTGPINEQNKENIKRAIAMHAAARRTRMLQQLREGLQLYRLVDIMEKNKEVCRSHFVFEGGNDQVDSQYIVSHLDPKMSESGTLKHSKEMQILNNFQDFLMELEDGGPEDEEALCVSKVMQWLSGQAHVHLLLSERQAFKITVLFDHTCMERMPDHRICYPVDSAWTQTITFPTAHSTSLNQFKENMRIAVQQGAYFYRV	not soluble
PPHVKFIKEKDICSYEEASDPGHFRWYPKGKLMRDLLADYVYNLVVNMGAMPVETPIMYDLGNPAIREHADKFGERQYRFRQGNKELMLRFAACFGQFMMKKDMYLLPRYLPLKLYELSTYSFRYEQRGELVGLKRLRCFTMPDMHTVCLNLEQAMEEFEKQFWECLKTGDDLNLSYSVIFRFTKDFFDEHRDWFFKIAKEYKNKYGKDVILEILPKRKHYWVGKVDIAVIDSLGRPIENPTVQIDVESAKRFDIKVHTNEGEIYPIILHCSPTGSIERVLCGLLEKAA	not soluble
MGSDKIHHHHHHMKVTTISIDLAKNVFQVLGMDCHAKQVFNKRLNRTQLTEFMLQQPNCDVVFEACYSSHYWGRKFLAMGHNVKLIPAQHVTPFVRGSKNDNNDTMAIYEASFRPNIRFVPVKTEEQQEILMLHRIRERLVKEKTACTNQIRGVLVDFGICFAQGYKAFEVAIWDIINDASQRPIIKLMANDFWGEYQSVNTRLDRINTLIKKLIERDPNGKILLSIPGVGPIIASAFVASIGRGQAFNTAKELGVWLGLTPKQFASGHRSVNGSITKRGNGYLRKQLIHGARAVVSHASKKQDDLNLWIMQLRSRKSICSTVVATAHRLARLIWILLQKQVPYVPQYAANQGVNHGTC	not soluble

Q) # lookup: soluble on expression in E. coli of MGSDKIHHHHHHMSSLATLAQPLADGTFQCLACQWRCTLAPGEIGRCHMRIGREEGIELINHGMISGAAIGPVEDHRLWHFFPDTTVLAIGGWGYALPIDQQRGPYGTLPTEPAKQRRLEPQRAADFALERLCRGVVWAFGEPAVNFEYVLALLQLSRAASRYTAIVTSGMLSLEALNELGPYLNGISLDLRGFSDNAYQRLGGISDWRHILRFAEEAQQRWKCHIEITTRIHHGVNDHPDELRDLVEWIKKTLGEETPWHVLPGDAGSETAAATKQARRIGHEGGLQFIYGHEPNQPTRCPSCHATLINRQHGVSRRVGLDGNRCSNCGYATNLYLSIFKVHRT
A) not soluble
